# EXPERIMENTAL TARGET: UniProtKB P09874
pIC50: −log10 of the molar value.
Could you label it class 1 if measured pIC50 is 6 or higher, and class 0 otherwise?

Some entries whose results are on file:
{"COMPOUND": "O=c1[nH]c2cc(CN3CCOCC3)ccc2c2ccccc12", "EXPERIMENTAL TARGET": "UniProtKB P09874", "CATEGORY": "class 1"}
{"COMPOUND": "O=C1N=C(CCCN2CC=C(c3ccccc3)CC2)NC2CCCCCC12 (centres undefined)", "EXPERIMENTAL TARGET": "UniProtKB P09874", "CATEGORY": "class 1"}
{"COMPOUND": "O=C1N=C(CCCN2CC=C(c3ccccc3)CC2)NC2CCNCC12 (centres undefined)", "EXPERIMENTAL TARGET": "UniProtKB P09874", "CATEGORY": "class 0"}
{"COMPOUND": "CC1=NC(=O)C2CSCCC2N1 (centres undefined)", "EXPERIMENTAL TARGET": "UniProtKB P09874", "CATEGORY": "class 1"}

Problem: # bool: pIC50 of O=C1NC(CCCN2CC=C(c3ccccc3)CC2)=NC2CCSCC12 (centres undefined) >= 6
Solution: class 1

Problem: Is reported pIC50 greater than or equal to 6 here: O=C1NC(CCCN2CC=C(c3ccccc3)CC2)=NC2CCCC12 (centres undefined)
Solution: class 1

Problem: Hi team, for O=C1N=C(CCCN2CC=C(c3ccccc3)CC2)NC2CCOCC12 (centres undefined) , is the recorded pIC50 at or above 6?
Solution: class 1

Problem: Item CN1CCC2NC(CCCN3CC=C(c4ccccc4)CC3)=NC(=O)C2C1 (centres undefined) with pIC50 of 6 or above?
Solution: class 0

Problem: State whether the measured pIC50 reaches 6, counting equality as reaching it, for O=c1[nH]c2ccc(CCCCN3CC=C(c4ccccc4)CC3)cc2c2ccccc12
Solution: class 1

---

This section lists pIC50 readings for Poly [ADP-ribose] polymerase 1 (Homo sapiens).
Give bare numbers, as −log10 of the molar value.

{"COMPOUND": "O=c1[nH]nc(CCCCN2CCOCC2)c2ccccc12", "EXPERIMENTAL TARGET": "Poly [ADP-ribose] polymerase 1 (Homo sapiens)", "pIC50": 6.02}
{"COMPOUND": "CC1CCC2NC(CCCN3CC=C(c4ccccc4)CC3)=NC(=O)C2C1 (stereo not given)", "EXPERIMENTAL TARGET": "Poly [ADP-ribose] polymerase 1 (Homo sapiens)", "pIC50": 6.56}
{"COMPOUND": "O=C1N=C(CCCN2CC=C(c3ccccc3)CC2)NC2CCCCC12 (stereo not given)", "EXPERIMENTAL TARGET": "Poly [ADP-ribose] polymerase 1 (Homo sapiens)", "pIC50": 7.70}

Pending compound:
Problem: Output measured pIC50 for this item: Oc1nnc(CCCCCN2CCOCC2)c2ccccc12
Solution: 6.92
